Listed here are compounds together with their documented ED50.
System: compound 48/80-induced lethality
Experiment: Protection of rats from compound 48/80-induced lethality
Format: in vivo, rat (male, inbred Wistar strain)
Conditions: Rattus norvegicus, 4 h, read-out: Compound 48/80 lethality test in rats-ED50
Response body: numeric value in mg/kg, unit text excluded.

Take a look at these entries with their results.
Compound: Cc1nc2n(c(=O)c1CCN1CCC(Nc3nc4cccnc4n3Cc3ccco3)CC1)CC(C)CC2 (stereo not shown)
Assay Target: compound 48/80-induced lethality
Result Units: mg/kg
Assay Value: 0.04
--
Compound: Fc1ccc(Cn2c(NC3CCN(CCNc4ncnc5c4ncn5Cc4ccccc4)CC3)nc3ccccc32)cc1
Assay Target: compound 48/80-induced lethality
Result Units: mg/kg
Assay Value: 0.16
--
Compound: O=c1[nH]c2ccccc2c(=O)n1CCCN1CCC(Nc2nc3cccnc3n2Cc2ccc(F)cc2)CC1
Assay Target: compound 48/80-induced lethality
Result Units: mg/kg
Assay Value: 0.16
--
Compound: Fc1ccc(Cn2c(NC3CCN(CCNc4ncnc5[nH]cnc45)CC3)nc3ccccc32)cc1
Assay Target: compound 48/80-induced lethality
Result Units: mg/kg
Assay Value: 0.08
--
Compound: Cc1nc2n(c(=O)c1CCN1CCC(Nc3nc4ccccc4n3Cc3ccco3)CC1)CCS2
Assay Target: compound 48/80-induced lethality
Result Units: mg/kg
Assay Value: 0.08

As a next step, examine the compound that follows.
// sample O=c1c2ccccc2[nH]c(=S)n1CCN1CCC(Nc2nc3ccccc3n2Cc2ccco2)CC1 , its ED50 was 0.16
